Target: T1, human IL-2Rβ (human, UniProt P14784 27-240, limits assumed)
T1 construct: recombinant protein, coated or immobilised; also called hu IL-2R; IL-2R beta
T1 sequence: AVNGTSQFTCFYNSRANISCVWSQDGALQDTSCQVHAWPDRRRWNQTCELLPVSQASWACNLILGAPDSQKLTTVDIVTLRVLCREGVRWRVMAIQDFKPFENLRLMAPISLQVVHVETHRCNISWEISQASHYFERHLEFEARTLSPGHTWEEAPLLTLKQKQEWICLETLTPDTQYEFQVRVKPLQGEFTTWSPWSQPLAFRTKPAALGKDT
Experiment: P.E. ELISA, coated protein
Assay Endpoint: P.E. binding ELISA OD (OD450 nm)
I only need the number, in OD450 nm, no unit after it.

Exam item: Consider the binder FJ1427_P035MP02G01 (VHH, soluble VHH in periplasmic extract; also called clone nr) VHH: QVQLVESGGGLVQTGGSLRLSCAVSGSRFISDVMGWYRQVPGKQRELVADMADGGSAKYADSVKGRFSILRDSAKNTVYLQMSSLKPEDTGIYYCKAGLWIAGRHSDYWGQGTQVTVSS and give its measured P.E. binding ELISA OD.
Marked response: 0.169

Exam item: Consider the binder FJ1427 P035MP02B07 (VHH, soluble VHH in periplasmic extract; also called clone nr) VHH: EVQLVESGGGLVEAGGSLRLSCAASGRAFNNFPMGWFRQAPGKEREFVAAITWISGSTLYADSVKGRFTISRDKSKNTVYLQMSGLKPEDTALYYCAAALKTITRGQHDYTYWGQGTQVTVSS and give its measured P.E. binding ELISA OD.
Marked response: 0.38

Exam item: Consider the binder FJ1427_P035MP02A11 (VHH, soluble VHH in periplasmic extract; also called clone nr) VHH: EVQLVESGGGLVQAGGSLRLSCAASGRTFSTTEMGWFRQAPGKEREFVAAITWTGRGTMYAESVEGRFTISRENAKNMVYLQMNSLKPEDTAIYYCAAARRGRAAVRSEGGYDFWGQGTQATVSS and give its measured P.E. binding ELISA OD.
Marked response: 0.891

Exam item: Consider the binder FJ1427_P035MP02A01 (VHH, soluble VHH in periplasmic extract; also called clone nr; 97) VHH: QVQLVESGGGLVQTGGSLRLSCVVSGSHFISDVMGWYRQVPGKQRELVADMADGGSAKYGDSVKGRFTILRDSVKNTVYLQMSSLNPEDTGVYYCKAGLWITGRHSDYWGQGTQVTVSS and give its measured P.E. binding ELISA OD.
Marked response: 0.311

Exam item: Consider the binder FJ1427 P035MP02H09 (VHH, soluble VHH in periplasmic extract; also called clone nr) VHH: QLQLVESGGGLVQPGGSLRLSCAAAGRAIENYPVGWFRRAPGKEREFVAAITWISGSTLYADSVKGRFTISRDNAKNTVYLQMSSLKPEDTALYYCAAALKTITRGQNDYSYWGQGTQVTVSS and give its measured P.E. binding ELISA OD.
Marked response: 1.51

Exam item: Consider the binder FJ1427 P035MP02C11 (VHH, soluble VHH in periplasmic extract; also called clone nr) VHH: QVQLVESGGGLVQAGGSLRLSCAVSGDVFVRYTMAWFRQAPGKEREFVASVTDSGRTTEYVDSVKGRFTVSRDNAKNTVYLQMNSLKPEDTAVYYCAANTDYFQIRSLRANTWGQGTQVTVSS and give its measured P.E. binding ELISA OD.
Marked response: 1.57

Exam item: Consider the binder FJ1427 P035MP02H10 (VHH, soluble VHH in periplasmic extract; also called clone nr) VHH: EVQLVESGGGLVQAGGSLRLSCAASGDVFVRYTMAWFRQAPGKEREFVASVTDSGRTTDYVDSVKGRFTVSRDNAKNTVYLQMNNLKPEDTAVYYCAANTDYFQIKSLDRNTWGQGTQVTVSS and give its measured P.E. binding ELISA OD.
Marked response: 0.435

Exam item: Consider the binder FJ1427_P035MP02F08 (VHH, soluble VHH in periplasmic extract; also called clone nr) VHH: QVQLVESGGGLVQAGGSLRLSCAASGSIFSLNTMGWFRQAPGKEREFVAAISRSGGSATYGDSVKGRFTISTNNAKTTVYLQMNSLKPDDTAVYSCAASAAVGWTTRWSTIDFDSWGQGTQVTVSS and give its measured P.E. binding ELISA OD.
Marked response: 0.614
